Experiment: BSK_LPS_SRB: Viability Assessment in the BioMAP Diversity Plus: LPS Assay (AID 2283079);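 also: total protein by sulforhodamine B absorbance as a cytotoxicity measure; measured one day after compound addition; fitted in both directions against DMSO so loss or gain of signal counts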
Conditions: primary human HUVEC with PBMC
Active and inactive are the calls of the source. The calls were made as follows: active = hit-call score of the fitted dose curve at least 0.9, where 1 is the maximum; inactive = score below 0.9.
Outcome codes: 1 for active, -1 for inactive

Compound: CO[C@@H]1COCC[C@@H]1N[C@@H]1CC[C@@](C(=O)N2CCc3ncc(C(F)(F)F)cc3C2)(C(C)C)C1
Class: -1
//
Compound: O=C1CCCCC1
Class: -1
//
Compound: CC(COCC(C)OC(=O)c1ccccc1)OC(=O)c1ccccc1 (configuration not stated)
Class: -1
//
Compound: NC=O
Class: -1
//
Compound: C=CCCCCCCCCCCCC
Class: -1
//
Compound: Nc1nc(Cl)nc2c1ncn2[C@H]1C[C@H](O)[C@@H](CO)O1
Class: 1
//
Compound: CCc1nc(N)nc(N)c1-c1ccc(Cl)cc1
Class: -1
//
Compound: CN(C)CCCN(C)CCCN(C)C
Class: -1
//
Compound: O=C(N[C@@H](c1ccccc1)[C@@H]1CCCCN1)c1cccc(C(F)(F)F)c1Cl
Class: 1
//
Compound: CN(C)C(=O)NC1(c2ccccc2)CCN(CCC[C@]2(c3ccc(Cl)c(Cl)c3)CCCN(C(=O)c3ccccc3)C2)CC1
Class: -1
//
Compound: Cc1c(C)c2c(c(C)c1O)CCC(C)(COc1ccc(CC3SC(=O)NC3=O)cc1)O2 (configuration not stated)
Class: 1
//
Compound: OCC(O)CO
Class: -1

====

Biological target: human Elastase, ELANE (gene 1991)
Test: NVS_ENZ_hElastase: NovaScreen (NVS) Enzymatic Assay for human Elastase (AID 2283153)
Method: NVS_ENZ_hElastase is a biochemical, single-readout assay that uses extracted gene-proteins from Human neutrophils in a cell-free assay. Measurements were taken 1.5 hours after chemical dosing in a 96-well plate.NVS_ENZ_hElastase is one of one assay component(s) measured or calculated from the NVS_ENZ_hElastase assay. […] This assay endpoint, NVS_ENZ_hElastase, was analyzed in the positive analysis fitting direction relative to DMSO as the negative control and baseline of activity. […]
Results filed as inconclusive are left out. Activity calls are given as the source filed them. The calls were made as follows: active = hit-call score of the fitted dose curve at least 0.9, where 1 is the maximum; inconclusive = response in the unintended direction; inactive = score below 0.9.
Outcome codes: active, inactive

Structure notation: CCc1cc(C2=C(C(=O)O)N(c3ccccc3C(F)(F)F)S(=O)(=O)c3ccccc32)cc2c1OCO2
Class: active
//
Structure notation: O=C1c2c(O)cccc2Cc2cccc(O)c21
Class: active
//
Structure notation: CC(C)(O)c1ccc(CNC(=O)c2cccnc2Oc2ccc(F)cc2)cc1
Class: inactive
//
Structure notation: CCCCCCCCCCCCCCOS(=O)(=O)O
Class: active

====

Read-out: MicroRNA 122 (MIR122), gene 406906
Test: LTEA_HepaRG_MIR122: Life Technologies and Expression Analysis (LTEA) Assay for MicroRNA 122 (MIR122) using HepaRG (AID 2283516); also: the transcript read is the microRNA miR-122
Conditions: mRNA level, 48 h; actives raise or lower the signal
Activity calls are given as the source filed them. Rule for the calls: active = hit-call score of the fitted dose curve at least 0.9, where 1 is the maximum; inactive = score below 0.9.
Metric name: AC50

Structure notation: CC(C)COC(=O)CCCCC(=O)OCC(C)C
Metric name: AC50
Experimental result: inactive
//
Structure notation: Cc1occc(=O)c1O
Metric name: AC50
Experimental result: inactive
//
Structure notation: COc1ccc(C(=O)Nc2nc3ccccc3c(NCc3ccccc3)c2C#N)cc1
Metric name: AC50
Experimental result: 14.7 µM (active)
//
Structure notation: CN(C)C(=O)NC1(c2ccccc2)CCN(CCC[C@]2(c3ccc(Cl)c(Cl)c3)CCCN(C(=O)c3ccccc3)C2)CC1
Metric name: AC50
Experimental result: inactive
//
Structure notation: COC(=O)[C@H]1[C@H]2C[C@@H]3c4[nH]c5cc(OC)ccc5c4CCN3C[C@H]2C[C@@H](OC(=O)c2cc(OC)c(OC)c(OC)c2)[C@@H]1OC
Metric name: AC50
Experimental result: 55 µM (active)
